# Test system: CFPAC-1
# assay: In vitro cytotoxicity against human pancreatic cancer (CFPAC-1) tumor cell line
# Type: functional, cell-based
measure: log10 IC50 (log10 of the value in nM)
The base-10 logarithm of IC50, taken with IC50 in nM, is what appears here.

molecule="COc1ccc(C2C(OC(C)=O)C(=O)N2c2cc(OC)c(OC)c(OC)c2)cc1[N+](=O)[O-] (configuration not stated)" measure="log10 IC50" recorded_result=2.29
molecule="COc1ccc(C2C(OC(C)=O)C(=O)N2c2cc(OC)c(OC)c(OC)c2)cc1N (configuration not stated)" measure="log10 IC50" recorded_result=2.31
molecule="COc1ccc(C2C(O)C(=O)N2c2cc(OC)c(OC)c(OC)c2)cc1[N+](=O)[O-] (configuration not stated)" measure="log10 IC50" recorded_result=1.62
molecule="COc1ccc(C2C(O)C(=O)N2c2cc(OC)c(OC)c(OC)c2)cc1N (configuration not stated)" measure="log10 IC50" recorded_result=1.70

Which log10 IC50 value belongs to COc1cc(N2C(=O)C(O)C2c2ccc3c(c2)OCO3)cc(OC)c1OC (configuration not stated) ? 2.95

====

# Tested on: DU-145
# assay: In vitro cytotoxicity against human Prostate carcinoma (DU145) tumor cell line
# Type: functional, cell-based
hey, just use Y if measured IC50 is less than 400 nM, otherwise N

molecule="COc1ccc(C2C(OC(C)=O)C(=O)N2c2cc(OC)c(OC)c(OC)c2)cc1[N+](=O)[O-] (configuration not stated)" group_label=N
molecule="COc1ccc(C2C(O)C(=O)N2c2cc(OC)c(OC)c(OC)c2)cc1N (configuration not stated)" group_label=Y
molecule="COc1cc(C2C(OC(C)=O)C(=O)N2c2ccc3c(c2)OCO3)cc(OC)c1OC (configuration not stated)" group_label=N

Would you kindly verify if IC50 of COc1ccc(C2C(OC)C(=O)N2c2cc(OC)c(OC)c(OC)c2)cc1[N+](=O)[O-] (configuration not stated) is strictly less than 400 nM? N

What would you report for COc1ccc(C2C(O)C(=O)N2c2cc(OC)c(OC)c(OC)c2)cc1[N+](=O)[O-] (configuration not stated) ? Y

What would you report for COc1ccc(C2C(OC(C)=O)C(=O)N2c2cc(OC)c(OC)c(OC)c2)cc1N (configuration not stated) ? N

What would you report for COc1cc(N2C(=O)C(O)C2c2ccc3c(c2)OCO3)cc(OC)c1OC (configuration not stated) ? N

====

# System: DLD-1
# assay: In vitro cytotoxicity against human colon adenocarcinoma (DLD-1) tumor cell line
# Assay type: functional, cell-based
measure: log10(IC50) (log10 of the value in nM)
The base-10 logarithm of IC50, taken with IC50 in nM, is what appears here.

molecule="COc1ccc(C2C(O)C(=O)N2c2cc(OC)c(OC)c(OC)c2)cc1[N+](=O)[O-] (configuration not stated)" recorded_result=1.77
molecule="COc1cc(N2C(=O)C(O)C2c2ccc3c(c2)OCO3)cc(OC)c1OC (configuration not stated)" recorded_result=2.96
molecule="COc1ccc(C2C(O)C(=O)N2c2cc(OC)c(OC)c(OC)c2)cc1N (configuration not stated)" recorded_result=2.11
molecule="COc1ccc(C2C(OC(C)=O)C(=O)N2c2cc(OC)c(OC)c(OC)c2)cc1[N+](=O)[O-] (configuration not stated)" recorded_result=2.51

Now, please, on to the next molecule.
Request - read-out log10(IC50) | tested on DLD-1 | molecule COc1ccc(C2C(OC(C)=O)C(=O)N2c2cc(OC)c(OC)c(OC)c2)cc1N (configuration not stated) 2.60

====

# Tested on: NCI-H69
# assay: In vitro cytotoxicity against human cancerous cells (NCI-H69) was determined
# Format: functional, cell-based
measure: IC50
Give the value; after it, write the unit.

Consider the worked cases shown below.
compound="COc1ccc(C2C(O)C(=O)N2c2cc(OC)c(OC)c(OC)c2)cc1N (centres undefined)" measure=IC50 recorded_result="25 nM"
compound="COc1ccc(C2C(O)C(=O)N2c2cc(OC)c(OC)c(OC)c2)cc1[N+](=O)[O-] (centres undefined)" measure=IC50 recorded_result="74 nM"

Which IC50 value belongs to COc1ccc(C2C(OC(C)=O)C(=O)N2c2cc(OC)c(OC)c(OC)c2)cc1N (centres undefined) ? 41 nM

What would you report for COc1ccc(C2C(O)C(=O)N2c2cc(OC)c(OC)c(OC)c2)cc1 (centres undefined) ? 47 nM

====

# log10 IC50 annotations
# Test system: MCF7
# assay: In vitro cytotoxicity against human breast carcinoma (MCF-7) tumor cell line
# Assay type: functional, cell-based
The base-10 logarithm of IC50, taken with IC50 in nM, is what appears here.

compound="COc1ccc(C2C(O)C(=O)N2c2cc(OC)c(OC)c(OC)c2)cc1[N+](=O)[O-] (configuration not stated)" system_tested=MCF7 recorded_result=1.57
compound="COc1cc(N2C(=O)C(O)C2c2ccc3c(c2)OCO3)cc(OC)c1OC (configuration not stated)" system_tested=MCF7 recorded_result=2.74
compound="COc1ccc(C2C(O)C(=O)N2c2cc(OC)c(OC)c(OC)c2)cc1N (configuration not stated)" system_tested=MCF7 recorded_result=1.74
compound="COc1ccc(C2C(OC(C)=O)C(=O)N2c2cc(OC)c(OC)c(OC)c2)cc1[N+](=O)[O-] (configuration not stated)" system_tested=MCF7 recorded_result=2.02

Now, please, on to the next compound.
Request - read-out log10 IC50 | tested on MCF7 | compound COc1ccc(C2C(OC(C)=O)C(=O)N2c2cc(OC)c(OC)c(OC)c2)cc1N (configuration not stated) 1.85
